# Test system: Escherichia coli
# assay_protocol: Antibiotic disk susceptibility test, rings of inhibition
# Format: cell-based
# test_context: Mueller-Hinton plate, 18-24 hrs at 37° C.; 100 μg of compound per disc, control discs 10 or 30 μg
property: E. coli, diameter of ring of inhibition
Reply with the value as a number alone.

Example entries begin here.
CC1(C)S[C@@H]2[C@H](NC(=O)[C@H](N)c3ccccc3)C(=O)N2[C@H]1C(=O)O; 17.13
O=C(N[C@H](CO)[C@H](O)c1ccc([N+](=O)[O-])cc1)C(Cl)Cl; 32.25
CN(C)[C@@H]1C(O)=C(C(N)=O)C(=O)[C@@]2(O)C(O)=C3C(=O)c4c(O)cccc4[C@@](C)(O)[C@H]3C[C@@H]12; 20.45

Kindly consider the entry below.
Recorded result, CCCCCCCCCCCCCC[N+](C)(C)Cc1ccccc1.[Cl-] , E. coli, diameter of ring of inhibition: 12.70
